Measured efflux ratio values are reported for all entries that follow.
# test-summary: Efflux ratio in human Caco2 cells
# Type: ADME, cell-based
# condition-label: Caco-2
Response field accepts a number only; no unit should be typed.

Sample answers from the record:
[[record]]
query_smiles = "COC(=O)N1CCN([C@H]2CC[C@H](Nc3ncnc4ccc(C)nc34)CC2)CC1"
property_label = "efflux ratio"
value_measured = 0.8

[[record]]
query_smiles = "CC(=O)N1CCN([C@H]2CC[C@H](Nc3ncnc4ccc(C#N)cc34)CC2)CC1"
property_label = "efflux ratio"
value_measured = 19


Now for a further compound.
Exam item: State the recorded efflux ratio for this entry: COC(=O)N1CCN([C@H]2CC[C@H](Nc3nc(Nc4cnn(C)c4)nc4ccc(C)nc34)CC2)CC1
Marked response: 0.9
